Measured melting point values are reported for all entries that follow.

IN: Returns the measured melting point for the input compound. Input: "COc1cc(NC(=O)c2ccc(-c3ccc(F)cc3)s2)cc(OC)c1OC"
OUT: 190.8 to 192 °C

IN: So what's the measured melting point for this one? "CC(C)(C)c1ccc(NC(=O)c2ccc(-c3ccc(F)cc3)s2)cc1"
OUT: 218.5 to 220.4 °C

IN: Please look up its melting point: "O=C(Nc1ccccc1)c1ccc(-c2ccc(F)cc2)s1"
OUT: 203.5 to 205 °C

IN: Record request: melting point value, item "COc1cc(NC(=O)c2ccc(-c3ccc(F)cc3)s2)cc(OC)c1"
OUT: 156.5 to 157 °C

Now look at this entry.
IN: Recorded melting point for "COc1cc(NC(=O)c2ccc(-c3ccc(F)cc3)s2)c(OC)cc1Cl" , please?
OUT: 185.5 to 187.5 °C

* * *

System: LX-2 (human hepatic stellate) cells
Assay: MTS cytotoxicity assay, normal cell line LX-2
Format: cell-based
Conditions: concentrations 1, 10, 50, 100, 300 µM
Measured Quantity: IC50

A selection of reference data follows.
IN: Given the entry "COc1cc(NC(=O)c2ccc(-c3ccc(F)cc3)s2)cc(OC)c1" , report its measured IC50.
OUT: > 300 µM

IN: Reported IC50 for "COc1cc(NC(=O)c2ccc(-c3ccc(F)cc3)s2)c(OC)cc1Cl" : what is it?
OUT: > 300 µM

IN: Reported IC50, molecule "COc1cc(NC(=O)c2ccc(-c3ccc(F)cc3)s2)cc(OC)c1OC" : ____
OUT: > 300 µM

IN: # query: IC50 of entry "O=C(Nc1ccccc1)c1ccc(-c2ccc(F)cc2)s1"
OUT: > 300 µM

IN: Would you mind telling me what IC50 value was observed for COc1cccc2c1C(=O)c1c(O)c3c(c(O)c1C2=O)C[C@@](O)(C(=O)CO)C[C@@H]3O[C@H]1C[C@H](N)[C@H](O)[C@H](C)O1 [DOX, Doxorubicin, reference compound] ?
OUT: < 1 µM

Let us examine a further case.
IN: Sample "CC(C)(C)c1ccc(NC(=O)c2ccc(-c3ccc(F)cc3)s2)cc1" — what was its IC50?
OUT: > 300 µM

* * *

Item-by-item account of IC50
Tested on: Hep3B (HCC) cells
Assay: MTS cytotoxicity assay, Hep3B
Format: cell-based
Details: Homo sapiens, concentrations 1, 10, 50, 100, 300 µM, mean ± SD
Give just the numeric value; µM need not be written.

IN: IC50 for "COc1cc(NC(=O)c2ccc(-c3ccc(F)cc3)s2)cc(OC)c1" ?
OUT: 8.85

IN: Returns the measured IC50 for the input compound. Input: "CC(C)(C)c1ccc(NC(=O)c2ccc(-c3ccc(F)cc3)s2)cc1"
OUT: 189

IN: # lookup: IC50 of "COc1cc(NC(=O)c2ccc(-c3ccc(F)cc3)s2)c(OC)cc1Cl"
OUT: 12.6

IN: Quick one: IC50 for "COc1cc(NC(=O)c2ccc(-c3ccc(F)cc3)s2)cc(OC)c1OC" ?
OUT: 5.46

IN: Need IC50, item COc1cccc2c1C(=O)c1c(O)c3c(c(O)c1C2=O)C[C@@](O)(C(=O)CO)C[C@@H]3O[C@H]1C[C@H](N)[C@H](O)[C@H](C)O1 [DOX, Doxorubicin, reference compound]
OUT: 1.21

Turning to the following compound.
IN: I would be grateful if you could share the reported IC50 for "O=C(Nc1ccccc1)c1ccc(-c2ccc(F)cc2)s1" .
OUT: 28
